Sourced from patent US20250059182A1

Tested on: pERK in MKN1 cells
Experiment: pERK inhibition, In-Cell Western (LI-COR Odyssey), MKN1 cells
Assay type: cell-based
Settings: Homo sapiens, MKN-1, Table B1; MKN1 or H358 cells (table does not say which); 0.5-1 hour incubation; read-out: IC50 (nM), pERK inhibition
As shown below, each of these compounds has a reported IC50 value.
property_measured: IC50 (nM)

{"item_smiles": "COC1(c2cc3c(N[C@H](C)c4cccc(C#N)c4C)nnc(C)c3cc2F)CCN(C(C)=O)CC1", "unit_name": "nM", "recorded_measurement": 100}
{"item_smiles": "Cc1nnc(N[C@H](C)c2cccc(C(C)(F)F)c2F)c2cc(-c3ccc(=O)n(C)c3)ncc12", "unit_name": "nM", "recorded_measurement": 415}
{"item_smiles": "Cc1c(C#N)cccc1[C@@H](C)Nc1nnc(C)c2cc(F)c(N3CCC34CN(CCC(=O)O)C4)cc12", "unit_name": "nM", "recorded_measurement": 4110}
{"item_smiles": "Cc1nnc(N[C@H](C)c2cccc(C(C)(F)F)c2F)c2cc(N3CCOCC3)ncc12", "unit_name": "nM", "recorded_measurement": 71.4}
{"item_smiles": "CC(=O)N1CC2(CCN2c2cc3c(N[C@H](C)c4cccc(C#N)c4C)nnc(C)c3cn2)C1", "unit_name": "nM", "recorded_measurement": 38.7}
{"item_smiles": "Cc1c(C#N)cccc1[C@@H](C)Nc1nnc(C)c2cc(CF)c(N3CCN(C)CC3)cc12", "unit_name": "nM", "recorded_measurement": 181}
{"item_smiles": "Cc1c(C#N)cccc1[C@@H](C)Nc1nnc(C)c2cnc(N3CCN(CCCF)CC3)cc12", "unit_name": "nM", "recorded_measurement": 59.3}
{"item_smiles": "Cc1c(C#N)cccc1[C@@H](C)Nc1nnc(N2CC(N)C2)c2cnc(N3C[C@H]4C[C@@H]3CO4)cc12", "unit_name": "nM", "recorded_measurement": 451}
{"item_smiles": "Cc1c(C#N)cccc1[C@@H](C)Nc1nnc(C)c2cnc(N3CCc4c(cnn4C)C3)cc12", "unit_name": "nM", "recorded_measurement": 96.9}
{"item_smiles": "Cc1nnc(N[C@H](C)c2cccc(C(C)(F)F)c2F)c2cc(N3CCN4CCOC[C@@H]4C3)ncc12", "unit_name": "nM", "recorded_measurement": 28.5}
{"item_smiles": "Cc1c(C#N)cccc1[C@@H](C)Nc1nnc(C)c2cc(F)c(-c3ccc(=O)n(C)c3)cc12", "unit_name": "nM", "recorded_measurement": 457}
{"item_smiles": "Cc1c(C#N)cccc1[C@@H](C)Nc1nnc(C)c2cnc(N3CCc4c(ncn4C)C3)cc12", "unit_name": "nM", "recorded_measurement": 176}
{"item_smiles": "Cc1c(C#N)cccc1[C@@H](C)Nc1nnc(C)c2cnc(N3CCCCC3)cc12", "unit_name": "nM", "recorded_measurement": 302}
{"item_smiles": "Cc1nnc(N[C@H](C)c2cccc(C(F)(F)F)c2F)c2cc(N(C)[C@H]3CCN(C)C3)c(F)cc12", "unit_name": "nM", "recorded_measurement": 223}
{"item_smiles": "COC1CCN(c2cc3c(N[C@H](C)c4cccc(C#N)c4C)nnc(C)c3cn2)CC1", "unit_name": "nM", "recorded_measurement": 66.1}
